- System: kochia
- protocol_text: Test C pre-/postemergence test
- Format: in vivo, Kochia scoparia
- condition_context: preemergence, 250 g ai/ha; scale 0 (no effect) to 100 (complete control)
Task for the reader: assign each of the following molecules its reported Kochia plant response rating.
Answers are plain numbers.

>>> df
                                   molecule              measurement_type  value_measured
0  CC(Oc1c(CS(=O)(=O)c2cccc[n+]2[O-])c(C(F)(F)F)nn1C)C(F)(F)F (stereo not drawn)  Kochia plant response rating             100
1  Cn1nc(C(F)(F)F)c(C[S+]([O-])c2ccc(Cl)c[n+]2[O-])c1OCC(F)(F)F (racemic)  Kochia plant response rating             100
2  CCn1nc(C(F)(F)F)c(C[S+]([O-])c2cc(C)cc[n+]2[O-])c1OCC(F)(F)F (racemic)  Kochia plant response rating             100
3  CC(C)c1cc[n+]([O-])c([S+]([O-])Cc2c(C(F)(F)F)nn(C)c2OC(F)F)c1 (stereo not drawn)  Kochia plant response rating             100
4  CCn1nc(C(F)(F)F)c(CS(=O)(=O)c2cccc[n+]2[O-])c1OCC(F)(F)F  Kochia plant response rating             100

For each of the molecules below, state Kochia plant response rating.
1. CCn1nc(C(F)(F)F)c(CS(=O)(=O)c2cc(C)cc[n+]2[O-])c1OCC(F)(F)F
2. C#CCOc1c(C[S+]([O-])c2cccc[n+]2[O-])c(C(F)(F)F)nn1C (stereo not drawn)
3. Cc1cc[n+]([O-])c(S(=O)(=O)C(Cl)c2c(C(F)(F)F)nn(C)c2OCC(F)(F)F)c1 (racemic)
4. Cn1nc(C(F)(F)F)c(C(Cl)S(=O)(=O)c2cccc[n+]2[O-])c1OCC(F)(F)F (racemic)

1. 100
2. 100
3. 100
4. 100

For each of the molecules below, state Kochia plant response rating.
1. Cn1nc(C(F)(F)F)c(C[S+]([O-])c2ccc(Cl)c[n+]2[O-])c1OCC(F)F (stereo not drawn)
2. Cc1cc[n+]([O-])c(S(=O)(=O)Cc2c(C(F)(F)F)nn(C)c2OC(C)C(F)(F)F)c1 (stereo not drawn)
3. Cn1nc(C(F)(F)F)c(CS(=O)(=O)c2cccc[n+]2[O-])c1OCC(F)F

100
100
100

For each of the molecules below, state Kochia plant response rating.
1. CC(Oc1c(C[S+]([O-])c2cccc[n+]2[O-])c(C(F)(F)F)nn1C)C(F)(F)F (stereo not drawn)
2. Cn1nc(C(F)(F)F)c(C[S+]([O-])c2cccc[n+]2[O-])c1OCC(F)F (stereo not drawn)
3. Cc1cc([S+]([O-])Cc2c(C(F)(F)F)nn(C)c2OCC(F)(F)F)[n+]([O-])cc1Cl (stereo not drawn)

1. 100
2. 100
3. 100

All values here come from patent US20100298141A1.
